# Tested on: Trichophyton mentagrophytes
# TEST: Antimicrobial activity against Trichophyton mentagrophytes UPCC 4193 assessed as clearing zone at 30 ug after 72 hrs
# Format: functional
# RECORDED CONDITIONS: read-out: IZ
Provide the reported zone of inhibition at 30 µg/disc of each item.
Answers are plain numbers, in mm.

[
  {
    "MOLECULE SMILES": "Clc1ccccc1C(c1ccccc1)(c1ccccc1)n1ccnc1",
    "zone of inhibition at 30 µg/disc, mm": 21
  },
  {
    "MOLECULE SMILES": "Cc1c2c(cc3occc13)[C@@]1(C)CCCC(C)(C)[C@]1(O)[C@H](OC(=O)c1ccccc1)C2",
    "zone of inhibition at 30 µg/disc, mm": 12
  },
  {
    "MOLECULE SMILES": "C=C1c2ccoc2C[C@H]2[C@H]1C[C@@H](OC(=O)c1ccccc1)[C@@]1(O)C(C)(C)CCC[C@]21C",
    "zone of inhibition at 30 µg/disc, mm": 12
  },
  {
    "MOLECULE SMILES": "C[C@H]1c2ccoc2C[C@H]2[C@H]1[C@@H](O)[C@@H](OC(=O)c1ccccc1)[C@@]1(O)C(C)(C)CCC[C@]21C",
    "zone of inhibition at 30 µg/disc, mm": 13
  },
  {
    "MOLECULE SMILES": "CC1(C)CCC[C@]2(C)[C@H]3Cc4occc4[C@@](C)(O)[C@@H]3C[C@@H](OC(=O)c3ccccc3)[C@@]12O",
    "zone of inhibition at 30 µg/disc, mm": 13
  }
]

Next up:
Any idea what its zone of inhibition at 30 µg/disc is? The molecule is "COc1cccc(OC)c1C(=O)OCc1ccccc1" 14

====

Provide the reported zone of inhibition at 30 µg/disc of each item.
# Test system: Escherichia coli
# TEST: Antimicrobial activity against Escherichia coli UPCC 1195 assessed as clearing zone at 30 ug after 24 hrs
# Type: functional
# RECORDED CONDITIONS: read-out: IZ
Numbers only, in mm.

# return zone of inhibition at 30 µg/disc for each item in the list
1. CC1(C)CCC[C@]2(C)[C@H]3Cc4occc4[C@@](C)(O)[C@@H]3C[C@@H](OC(=O)c3ccccc3)[C@@]12O
2. Cc1c2c(cc3occc13)[C@@]1(C)CCCC(C)(C)[C@]1(O)[C@H](OC(=O)c1ccccc1)C2
3. C=C1c2ccoc2C[C@H]2[C@H]1C[C@@H](OC(=O)c1ccccc1)[C@@]1(O)C(C)(C)CCC[C@]21C

[12, 12, 12]

# return zone of inhibition at 30 µg/disc for each item in the list
1. COc1cccc(OC)c1C(=O)OCc1ccccc1
2. C[C@H]1c2ccoc2C[C@H]2[C@H]1[C@@H](O)[C@@H](OC(=O)c1ccccc1)[C@@]1(O)C(C)(C)CCC[C@]21C
3. O=C(N[C@H](CO)[C@H](O)c1ccc([N+](=O)[O-])cc1)C(Cl)Cl

1. 12
2. 12
3. 24

====

# Test system: Aspergillus niger
# TEST: Antimicrobial activity against Aspergillus niger UPCC 3701 assessed as antimicrobial index at 30 ug after 48 hrs
# Assay type: functional
OUTCOME MEASURE: Activity
Numbers only.

# return Activity for each item in the list
1. C=C1c2ccoc2C[C@H]2[C@H]1C[C@@H](OC(=O)c1ccccc1)[C@@]1(O)C(C)(C)CCC[C@]21C
2. C[C@@H]1C[C@@H]([C@H](O)CC2CC(=O)NC(=O)C2)C(=O)[C@@H](C)C1 [CYCLOHEXIMIDE]
3. Cc1c2c(cc3occc13)[C@@]1(C)CCCC(C)(C)[C@]1(O)[C@H](OC(=O)c1ccccc1)C2
4. COc1cccc(OC)c1C(=O)OCc1ccccc1
5. C[C@H]1c2ccoc2C[C@H]2[C@H]1[C@@H](O)[C@@H](OC(=O)c1ccccc1)[C@@]1(O)C(C)(C)CCC[C@]21C

[0, 0.3, 0, 0, 0]

Any idea what its Activity is? The compound is "CC1(C)CCC[C@]2(C)[C@H]3Cc4occc4[C@@](C)(O)[C@@H]3C[C@@H](OC(=O)c3ccccc3)[C@@]12O" 0.2

====

# Test system: Trichophyton mentagrophytes
# TEST: Antimicrobial activity against Trichophyton mentagrophytes UPCC 4193 assessed as antimicrobial index at 30 ug after 72 hrs
# Type: functional
Provide the reported Activity of each item.
One number for each entry.

Below are worked cases with known answers.
[
  {
    "MOLECULE SMILES": "CC1(C)CCC[C@]2(C)[C@H]3Cc4occc4[C@@](C)(O)[C@@H]3C[C@@H](OC(=O)c3ccccc3)[C@@]12O",
    "VALUE OBSERVED": 0.3
  },
  {
    "MOLECULE SMILES": "C=C1c2ccoc2C[C@H]2[C@H]1C[C@@H](OC(=O)c1ccccc1)[C@@]1(O)C(C)(C)CCC[C@]21C",
    "VALUE OBSERVED": 0.2
  },
  {
    "MOLECULE SMILES": "C[C@H]1c2ccoc2C[C@H]2[C@H]1[C@@H](O)[C@@H](OC(=O)c1ccccc1)[C@@]1(O)C(C)(C)CCC[C@]21C",
    "VALUE OBSERVED": 0.3
  },
  {
    "MOLECULE SMILES": "Cc1c2c(cc3occc13)[C@@]1(C)CCCC(C)(C)[C@]1(O)[C@H](OC(=O)c1ccccc1)C2",
    "VALUE OBSERVED": 0.2
  }
]

# return Activity for each item in the list
1. Clc1ccccc1C(c1ccccc1)(c1ccccc1)n1ccnc1
2. COc1cccc(OC)c1C(=O)OCc1ccccc1

1. 1.1
2. 0.4

====

Provide the reported zone of inhibition at 30 µg/disc of each item.
# Test system: Staphylococcus aureus
# TEST: Antimicrobial activity against Staphylococcus aureus UPCC 1143 assessed as clearing zone at 30 ug after 24 hrs
# Type: functional
# RECORDED CONDITIONS: read-out: IZ
Give bare numbers, in mm.

Below are worked cases with known answers.
[
  {
    "MOLECULE SMILES": "C[C@H]1c2ccoc2C[C@H]2[C@H]1[C@@H](O)[C@@H](OC(=O)c1ccccc1)[C@@]1(O)C(C)(C)CCC[C@]21C",
    "UNIT TEXT": "mm",
    "zone of inhibition at 30 µg/disc": 16
  },
  {
    "MOLECULE SMILES": "O=C(N[C@H](CO)[C@H](O)c1ccc([N+](=O)[O-])cc1)C(Cl)Cl",
    "UNIT TEXT": "mm",
    "zone of inhibition at 30 µg/disc": 28
  },
  {
    "MOLECULE SMILES": "COc1cccc(OC)c1C(=O)OCc1ccccc1",
    "UNIT TEXT": "mm",
    "zone of inhibition at 30 µg/disc": 12
  },
  {
    "MOLECULE SMILES": "CC1(C)CCC[C@]2(C)[C@H]3Cc4occc4[C@@](C)(O)[C@@H]3C[C@@H](OC(=O)c3ccccc3)[C@@]12O",
    "UNIT TEXT": "mm",
    "zone of inhibition at 30 µg/disc": 14
  },
  {
    "MOLECULE SMILES": "C=C1c2ccoc2C[C@H]2[C@H]1C[C@@H](OC(=O)c1ccccc1)[C@@]1(O)C(C)(C)CCC[C@]21C",
    "UNIT TEXT": "mm",
    "zone of inhibition at 30 µg/disc": 16
  }
]

Any idea what its zone of inhibition at 30 µg/disc is? The molecule is "Cc1c2c(cc3occc13)[C@@]1(C)CCCC(C)(C)[C@]1(O)[C@H](OC(=O)c1ccccc1)C2" 12
